TGT: Potassium voltage-gated channel subfamily E member 1 (Homo sapiens) + Potassium voltage-gated channel subfamily KQT member 1 (Homo sapiens) (UniProt P15382+P51787)
EXPERIMENTAL_PROTOCOL: KCNQ1/KCNE1 complex potentiators, confirmation, selectivity assay for KCNQ1 potentiator project, thallium flux, CHO-K1 KCNQ1/E1 cells (AID 493186)
CONDITIONS: FluxOR thallium flux, at 10 µM
Activity calls are given as the source filed them.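 The calls were made as follows: active = mean duplicate activation above the buffer control mean plus 5 SD of those controls; inactive = the rest.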
Thanks in advance; please answer with one of these: 1.0 (active), 0.0 (inactive)

[[record]]
compound = "Fc1ccc(-n2cc(-c3ccccc3)c3c(=S)nc[nH]c32)cc1"
qualitative_label = 0.0

[[record]]
compound = "Cc1ccc(S(=O)(=O)N2CCN(C(=O)c3ccc(Br)o3)CC2)c(C)c1"
qualitative_label = 0.0

[[record]]
compound = "Cc1cccc(/N=C/c2sc3ccccc3c2O)n1"
qualitative_label = 0.0


Q) Call for entry COc1ccc(C(=O)NNC(=S)NC(=O)c2ccccc2)cc1 :
A) 1.0

Q) Call for entry Cc1ccccc1CS(=O)(=O)c1nnc([C@H](Cc2ccccc2)NC(=O)OC(C)(C)C)o1 :
A) 0.0

Q) Call for entry O=C(NC(=S)Nc1nc(-c2ccccc2)cs1)c1cccs1 :
A) 0.0

Q) Call for entry CC(=O)Nc1ccc(S(=O)(=O)Nc2nc3ccccc3nc2Nc2ccccc2)cc1 :
A) 0.0

Q) Call for entry COc1ccc(C(=O)/C=C/C(=O)N(CC(=O)NC2CCCCC2)Cc2ccccc2)c(O)c1 :
A) 0.0

Q) Call for entry Cc1ccc(NC(=O)Nc2ccc3c(c2)CCC3)cc1 :
A) 0.0

Q) Call for entry CCOc1cc(CN2CCN(C(=O)CC(C)C)CC2)ccc1OC :
A) 0.0

---

TGT: Potassium voltage-gated channel subfamily KQT member 2 (Rattus norvegicus) (UniProt O88943)
Sequence (O88943 whole entry, looked up): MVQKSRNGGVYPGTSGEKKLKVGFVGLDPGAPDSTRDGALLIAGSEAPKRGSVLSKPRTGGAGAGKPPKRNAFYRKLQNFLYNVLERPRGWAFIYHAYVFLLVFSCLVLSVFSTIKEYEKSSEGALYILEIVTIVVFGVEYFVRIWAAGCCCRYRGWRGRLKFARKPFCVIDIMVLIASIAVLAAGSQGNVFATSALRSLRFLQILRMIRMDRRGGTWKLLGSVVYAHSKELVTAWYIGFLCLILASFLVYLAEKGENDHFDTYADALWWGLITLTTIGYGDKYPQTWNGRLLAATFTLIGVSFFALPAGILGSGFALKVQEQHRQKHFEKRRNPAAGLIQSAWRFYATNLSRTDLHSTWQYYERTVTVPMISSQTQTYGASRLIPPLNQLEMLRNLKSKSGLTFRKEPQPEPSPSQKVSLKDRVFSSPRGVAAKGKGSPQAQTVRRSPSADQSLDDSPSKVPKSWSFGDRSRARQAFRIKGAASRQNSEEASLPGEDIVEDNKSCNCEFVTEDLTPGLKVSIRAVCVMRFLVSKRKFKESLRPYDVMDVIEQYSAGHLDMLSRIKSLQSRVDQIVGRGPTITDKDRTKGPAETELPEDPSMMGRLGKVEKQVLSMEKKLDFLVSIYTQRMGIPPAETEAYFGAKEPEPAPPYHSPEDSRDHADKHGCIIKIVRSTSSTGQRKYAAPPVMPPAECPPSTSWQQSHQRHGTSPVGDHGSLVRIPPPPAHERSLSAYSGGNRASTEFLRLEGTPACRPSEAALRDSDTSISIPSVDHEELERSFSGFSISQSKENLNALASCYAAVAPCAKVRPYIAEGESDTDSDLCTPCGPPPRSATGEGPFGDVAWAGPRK
EXPERIMENTAL_PROTOCOL: rat KCNQ2 channel potentiation, selectivity assay for KCNQ1 potentiator project, KCNQ2-CHO-K1 cells (AID 493009);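 also: assay conditions were tuned for KCNQ1 rather than KCNQ2 modulators; signal is max minus min fluorescence divided by baseline after thallium stimulus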
CONDITIONS: FluxOR thallium flux fluorescence, at 10 µM, scaled: buffer 0, activator control 100
Activity calls are given as the source filed them.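 Rule for the calls: active = mean duplicate potentiation above the buffer control mean plus 5 SD of buffer wells; inactive = the rest.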
Thanks in advance; please answer with one of these: active, inactive

Worked examples follow.
[[record]]
molecule = "O=C(NC(=S)N1CCCc2ccccc21)c1ccc([N+](=O)[O-])cc1"
qualitative_label = "active"

[[record]]
molecule = "O=C(NNC(=O)c1cc(-c2ccccc2)nn1-c1ccccc1)c1ccccc1"
qualitative_label = "inactive"

[[record]]
molecule = "COc1cc2c(cc1NC(=O)CSc1nnc(COc3ccc(Cl)cc3)n1C)oc1ccccc12"
qualitative_label = "inactive"

[[record]]
molecule = "Cc1sc2nc(C(C)C)nc(SCC(=O)NCc3ccco3)c2c1C"
qualitative_label = "active"

[[record]]
molecule = "O=c1c(O)c(-c2cccs2)oc2ccc(Cl)cc12"
qualitative_label = "active"

[[record]]
molecule = "CCC(NC(=O)CCc1nnc(-c2cc(C)on2)o1)C12CC3CC(CC(C3)C1)C2 (configuration not stated)"
qualitative_label = "inactive"

[[record]]
molecule = "N#Cc1ccccc1NS(=O)(=O)c1cc2c3c(c1)CCC(=O)N3CCC2"
qualitative_label = "inactive"

[[record]]
molecule = "O=C(c1ccccc1NS(=O)(=O)c1ccc(Br)cc1)N1CCOCC1"
qualitative_label = "active"

[[record]]
molecule = "Cc1ccc(S(=O)(=O)N2CCCC(C(=O)Nc3ccc(C(=O)O)cc3)C2)cc1Cl (configuration not stated)"
qualitative_label = "inactive"

[[record]]
molecule = "COc1ccc(CCN2CC(C(=O)Nc3ccc4c(c3)OCO4)CC2=O)cc1OC (configuration not stated)"
qualitative_label = "active"


Q) Call for entry O=C(NC(=S)Nc1ccc(N2CCCCC2)c(Cl)c1)c1cccs1 :
A) active

Q) Call for entry O=C(NNc1cc(N2CCOCC2)nc(N2CCOCC2)n1)C12CC3CC(CC(C3)C1)C2 :
A) inactive

From: PubChem BioAssay
